# Test system: LOC_OS01G02750-cb003
# protocol-summary: thermal shift delta Tm vs DMSO control; higher = stronger stabilization (binding);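 also: purified Escherichia coli-expressed rice kinase domain construct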
# measurement-parameters: 12.5 µM; protein concentration 2 µM
Where a name gives a salt, the structure may show the parent alone.
result-type: thermal shift delta Tm
Answer shape: numeric part, then the unit.

Solved cases below.
C[C@H]1CNCCCN1S(=O)(=O)c1cccc2cncc(F)c12 [Ripasudil (K-115) hydrochloride dihydrate] :: 1.34 °C
COc1cc2ncnc(Nc3ccc(Cl)cc3F)c2cc1OC :: 0.81 °C
CN(C)S(=O)(=O)c1ccc2c(c1)/C(=C/c1cc3c([nH]1)CCCC3)C(=O)N2 :: 6.57 °C

Kindly review the next molecule as well.
Exercise: Provide the documented thermal shift delta Tm with LOC_OS01G02750-cb003 as the system for "COc1ccc(-c2ccc3c(N4CCOC[C@@H]4C)nc(N4CCOC[C@@H]4C)nc3n2)cc1CO"
Solution: 0.23 °C

###

# Test system: LOC_OS02G45750-cb003
# protocol-summary: thermal shift delta Tm vs DMSO control; higher = stronger stabilization (binding)
# measurement-parameters: 12.5 µM; protein concentration 2 µM
Think of 1 °C as a floor: if thermal shift delta Tm stands on it or above, it is T; beneath it, F.

O=C(NC[C@H](O)CO)c1ccncc1Nc1ccc(I)cc1F :: F
Cn1cc(-c2ccc3ncc(Cc4ccc5ncccc5c4)n3n2)cn1 :: F
CN1CCN(c2ccc(C(=O)Nc3n[nH]c4ccc(Cc5cc(F)cc(F)c5)cc34)c(NC3CCOCC3)c2)CC1 [Entrectinib (RXDX-101)] :: T
Cc1c(Cn2c(C)nc3c(C(=O)O)cc(N4CCOCC4)cc32)cccc1C(F)(F)F :: F
Cn1sc(=O)n(Cc2ccccc2)c1=O :: F
OC(c1cc(-c2ccc(Cl)cc2)nc2ccccc12)C1CCCCN1 (stereo not given) :: T

Exercise: Could you tell me if the measured thermal shift delta Tm of "CN1c2ccccc2C(=O)Nc2cnc(Nc3ccc(N4CCC(O)CC4)cc3)nc21" reaches 1 °C or more?
Solution: T

Exercise: Determine whether measured thermal shift delta Tm meets or exceeds 1 °C for "C=CCc1ccc(O)c(-c2ccc(O)c(CC=C)c2)c1"
Solution: F

Exercise: Is thermal shift delta Tm at least 1 °C? Consider "O=C1NC(=O)/C(=C/c2ccc3nccc(-c4ccncc4)c3c2)S1"
Solution: T

Exercise: Record "CC(=O)c1c(C)c2cnc(Nc3ccc(N4CCNCC4)cn3)nc2n(C2CCCC2)c1=O" ; criterion: thermal shift delta Tm no lower than 1 °C. Met?
Solution: T

###

# System: LOC_OS02G45750-cb003
# protocol-summary: thermal shift delta Tm vs DMSO control; higher = stronger stabilization (binding)
# measurement-parameters: 12.5 µM; protein concentration 2 µM
Rule: thermal shift delta Tm under 0.8 °C gives FALSE, otherwise TRUE.

Illustrative cases are given below, each with its answer.
C[C@H](Nc1ncnc2nc[nH]c12)c1cc2cccc(Cl)c2c(=O)n1-c1ccccc1 :: FALSE
CNC(=O)Nc1ccc(-c2nc(N3CC4CCC(C3)O4)c3cnn(C4CCC5(CC4)OCCO5)c3n2)cc1 :: FALSE
COc1cc2/c(=N/c3ccc(Br)cc3F)nc[nH]c2cc1OCC1CCN(C)CC1 [Vandetanib (ZD6474)] :: TRUE
CCN(CC)CCCC(C)Nc1nc(C)cc(Nc2ccc3nc(C)cc(N)c3c2)n1 (stereo unspecified) :: TRUE
CCC[C@H](NC(=O)/C(C#N)=C/c1cccc(Br)n1)c1ccccc1 [Degrasyn (WP1130)] :: FALSE

Exercise: Record "C#Cc1cccc(Nc2ncnc3cc(OC)c(OCCCCCCC(=O)NO)cc23)c1" ; criterion: thermal shift delta Tm no lower than 0.8 °C. Met?
Solution: TRUE

Exercise: Exam item: decide whether the reported thermal shift delta Tm for "COc1ccccc1-c1cc(Nc2cccc(CS(N)(=O)=O)c2)ncn1" is at least 0.8 °C.
Solution: TRUE

Exercise: Does thermal shift delta Tm meet or surpass 0.8 °C for "CCCNC(=O)c1cn2ncnc(Nc3cc(C(=O)NC4CC4)ccc3C)c2c1C" ?
Solution: FALSE

###

# Tested on: LOC_OS04G38480-cb003
# Sequence (whole entry): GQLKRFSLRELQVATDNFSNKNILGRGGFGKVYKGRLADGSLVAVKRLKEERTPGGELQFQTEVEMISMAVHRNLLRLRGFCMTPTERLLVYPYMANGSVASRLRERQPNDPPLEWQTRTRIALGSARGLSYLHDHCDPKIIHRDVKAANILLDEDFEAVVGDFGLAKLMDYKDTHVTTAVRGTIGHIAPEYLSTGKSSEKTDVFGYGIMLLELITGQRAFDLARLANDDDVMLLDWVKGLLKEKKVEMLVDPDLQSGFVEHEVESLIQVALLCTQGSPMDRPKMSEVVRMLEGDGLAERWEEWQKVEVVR
# protocol-summary: thermal shift delta Tm vs DMSO control; higher = stronger stabilization (binding)
# measurement-parameters: 12.5 µM; protein concentration 2 µM
Counter-ions that a name gives are not always drawn.
Range-based classes on measured thermal shift delta Tm: LOW = under 0.9 °C, MEDIUM = from 0.9 °C up to 2 °C, HIGH = 2 °C and over

// known answers, use as guide
CO[C@H]1C[C@@H]2CC[C@@H](C)[C@@](O)(O2)C(=O)C(=O)N2CCCC[C@H]2C(=O)O[C@H]([C@H](C)C[C@@H]2CC[C@@H](O)[C@H](OC)C2)CC(=O)[C@H](C)/C=C(\C)[C@@H](O)[C@@H](OC)C(=O)[C@H](C)C[C@H](C)/C=C/C=C/C=C/1C [Rapamycin (Sirolimus)] :: MEDIUM
CCc1nc(C(N)=O)c(Nc2ccc(N3CCC(N4CCN(C)CC4)CC3)c(OC)c2)nc1NC1CCOCC1 :: HIGH
O=C(O)c1ccc2c3c1cccc3c(=O)n1c3ccccc3nc21 :: HIGH
CN1CCN(c2ccc(C(=O)Nc3n[nH]c4ccc(Cc5cc(F)cc(F)c5)cc34)c(NC3CCOCC3)c2)CC1 [Entrectinib (RXDX-101)] :: HIGH
COc1ccc(CCNCc2ccc(OCc3ccc(Cl)nc3)c(OC)c2)cc1OC :: LOW

Exercise: Class for "c1ccc(-c2[nH]ncc2-c2ccnc3ccccc23)nc1" ?
Solution: HIGH

Exercise: Note: place this compound into its band. Item: "Cc1ccc(Nc2nccc(N(C)c3ccc4c(C)n(C)nc4c3)n2)cc1S(N)(=O)=O"
Solution: MEDIUM

Exercise: State the class of the compound shown: "CCS(=O)(=O)N1CCN(c2ccc(Nc3ncc(C(N)=O)c(NC4CC4)n3)cc2)CC1"
Solution: HIGH

Exercise: Consider Nc1ncccc1-c1nc2ccc(-c3ccccc3)nc2n1-c1ccc(C2(N)CCC2)cc1 [Miransertib (ARQ 092) HCl] . To which thermal shift delta Tm class does it belong?
Solution: LOW

Exercise: Which class holds "CN(C)CCCn1cc(C2=C(c3c[nH]c4ccccc34)C(=O)NC2=O)c2ccccc21" ?
Solution: LOW

###

# Test system: LOC_OS03G50450-cb001
# protocol-summary: thermal shift delta Tm vs DMSO control; higher = stronger stabilization (binding)
# measurement-parameters: 12.5 µM; protein concentration 2 µM
result-type: thermal shift delta Tm

Some solved entries appear below for comparison.
Cc1nc(Nc2ncc(C(=O)Nc3c(C)cccc3Cl)s2)cc(N2CCN(CCO)CC2)n1 :: 0.06 °C
C=CC(=O)N[C@H]1CCOC[C@H]1Nc1ncc2cc(-c3c(Cl)c(OC)cc(OC)c3Cl)ccc2n1 :: 0.02 °C
CCc1cnn2c(NCc3ccc[n+]([O-])c3)cc(N3CCCC[C@H]3CCO)nc12 :: 0.63 °C
N#CC1(c2ccc(NC(=O)c3cccnc3NCc3ccncc3)cc2)CCCC1 :: 0.69 °C
C[C@H](NC(=O)/C(C#N)=C/c1cccc(Br)n1)c1ccccc1 :: 0.09 °C

Exercise: # query: thermal shift delta Tm of entry "CC1(C)OC(=O)C=C[C@]2(C)[C@H]3CC[C@@]4(C)[C@H](c5ccoc5)OC(=O)[C@H]5O[C@]54[C@]3(C)C(=O)C[C@@H]12"
Solution: 0.72 °C

Exercise: Sample "CNC(=O)c1cccc(-c2ccc3c(N4CCOC[C@@H]4C)nc(N4CCOC[C@@H]4C)nc3n2)c1" — what was its thermal shift delta Tm?
Solution: 0.09 °C

Exercise: Give the measured thermal shift delta Tm of "CNCc1ccc(-c2cc(-c3nc(-c4ccc(S(=O)(=O)C(C)C)cc4)cnc3N)on2)cc1" .
Solution: 0.34 °C

Exercise: I am curious: what thermal shift delta Tm value has been reported for "Cc1cc(O)c2c(c1)C(=O)c1cccc(O)c1C2=O" ?
Solution: 0.03 °C

Exercise: Fill blank: measured thermal shift delta Tm of the compound "CNC(=O)c1ccc(Nc2ncc(C(F)(F)F)c(NCc3nccnc3N(C)S(C)(=O)=O)n2)cc1" is ____.
Solution: 2.16 °C

Exercise: Returns the measured thermal shift delta Tm for the input compound. Input: "CCCCCCCCCCCCCCCCn1cc[n+](Cc2ccccc2)c1C"
Solution: -1.25 °C

Exercise: May I ask what thermal shift delta Tm has been recorded for "C[C@H](Nc1ncnc2nc[nH]c12)c1cc2cccc(Cl)c2c(=O)n1-c1ccccc1" ?
Solution: 0.38 °C

Exercise: Could you share which thermal shift delta Tm value was measured for "CCS(=O)(=O)N1CCN(c2ccc(Nc3ncc(C(N)=O)c(NC4CC4)n3)cc2)CC1" ?
Solution: 5.37 °C
